Test: Pharmacokinetics, noncompartmental parameters following intravenous (IV) dosing
Settings: in vivo, steady state volume of distribution, read-out: VSS
Measure name: Vd (L/kg)
Output spec: scalar in L/kg, unitless text.

Vd for CC(C)S(=O)(=O)c1ccc(-c2cnc(N)c(-c3cc(-c4ccc([C@@H]5COCCN5)cc4)no3)n2)cc1 [I] is 1.1

====

Assay: Pharmacokinetics, noncompartmental parameters following intravenous (IV) dosing
Conditions: in vivo, blood or plasma samples
Measure name: clearance (mL/min/kg)
Output spec: scalar in mL/min/kg, unitless text.

clearance for CC(C)S(=O)(=O)c1ccc(-c2cnc(N)c(-c3cc(-c4ccc([C@@H]5COCCN5)cc4)no3)n2)cc1 [I] is 3.5
